Attribution: patent US20250051375A1

# system-name: bovine intestinal alkaline phosphatase (Bos taurus (Bovine), UniProt P19111)
# Sequence (P19111 20-506): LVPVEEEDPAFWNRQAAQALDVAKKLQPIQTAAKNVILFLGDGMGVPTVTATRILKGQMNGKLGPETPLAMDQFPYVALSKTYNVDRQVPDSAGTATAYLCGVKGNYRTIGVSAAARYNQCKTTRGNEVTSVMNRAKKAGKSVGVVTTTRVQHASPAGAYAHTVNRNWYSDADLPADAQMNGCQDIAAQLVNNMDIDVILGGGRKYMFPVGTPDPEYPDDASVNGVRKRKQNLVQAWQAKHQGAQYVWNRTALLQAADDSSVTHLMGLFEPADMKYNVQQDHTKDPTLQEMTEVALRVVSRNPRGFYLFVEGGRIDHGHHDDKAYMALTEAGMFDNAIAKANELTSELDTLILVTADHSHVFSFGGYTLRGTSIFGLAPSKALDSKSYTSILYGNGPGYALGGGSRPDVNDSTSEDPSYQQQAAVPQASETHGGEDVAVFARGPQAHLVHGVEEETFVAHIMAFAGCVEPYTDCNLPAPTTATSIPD
# experiment-notes: BiALP: conversion by bovine intestinal alkaline phosphatase
# Type: in vitro ADME
# setup-conditions: 2 μM substrate, 100 ng/mL iALP, Tris pH 7.8, 37° C., 60 minutes
experimental-endpoint: [Compound]

1. COC(=O)N[C@H](C(=O)N[C@@H](Cc1ccc(C#Cc2cnc(N3CC4CCC(C3)N4C3COC3)nc2)cc1)[C@H](CN(Cc1c(F)cc(-c2ccn(C(F)F)n2)cc1F)NC(=O)[C@@H](NC(=O)OC)C(C)(C)C(F)(F)F)OC(=O)CC(C)(C)c1c(CC(=O)N2CC[C@@H]2C(=O)O)cc(C)cc1OP(=O)(O)O)C(C)(C)C(F)(F)F : 2004.9 nM
2. C=C1C[C@@H](C(=O)O)N(C(=O)Cc2cc(C)cc(OP(=O)(O)O)c2C(C)(C)CC(=O)O[C@@H](CN(Cc2c(F)cc(-c3ccn(C(F)F)n3)cc2F)NC(=O)[C@@H](NC(=O)OC)C(C)(C)C(F)(F)F)[C@H](Cc2ccc(C#Cc3cnc(N4CC5CCC(C4)N5C4COC4)nc3)cc2)NC(=O)[C@@H](NC(=O)OC)C(C)(C)C(F)(F)F)C1 : 1457.7 nM
3. COC(=O)N[C@H](C(=O)N[C@@H](Cc1ccc(C#Cc2cnc(N3CC4CCC(C3)N4C3COC3)nc2)cc1)[C@H](CN(Cc1c(F)cc(-c2ccn(C(F)F)n2)cc1F)NC(=O)[C@@H](NC(=O)OC)C(C)(C)C(F)(F)F)OC(=O)OCOC(=O)CC(C)(C)c1c(CC(=O)N[C@@H](CC(=O)O)C(=O)O)cc(C)cc1OP(=O)(O)O)C(C)(C)C(F)(F)F : 1478.2 nM
4. COC(=O)N[C@H](C(=O)N[C@@H](Cc1ccc(C#Cc2cnc(N3CC4CCC(C3)N4C3COC3)nc2)cc1)[C@H](CN(Cc1c(F)cc(-c2ccn(C(F)F)n2)cc1F)NC(=O)[C@@H](NC(=O)OC)C(C)(C)C(F)(F)F)OC(=O)CC(C)(C)c1c(CC(=O)N2C[C@H]3[C@@H]([C@H]2C(=O)O)C3(C)C)cc(C)cc1OP(=O)(O)O)C(C)(C)C(F)(F)F : 1950.3 nM
5. COC(=O)N[C@H](C(=O)N[C@@H](Cc1ccc(C#Cc2cnc(N3CC4CCC(C3)N4C3COC3)nc2)cc1)[C@H](CN(Cc1c(F)cc(-c2ccn(C(F)F)n2)cc1F)NC(=O)[C@@H](NC(=O)OC)C(C)(C)C(F)(F)F)OC(=O)CC(C)(C)c1c(CC(=O)N(C)[C@@H](C)C(=O)O)cc(C)cc1OP(=O)(O)O)C(C)(C)C(F)(F)F : 1772.9 nM
6. COC(=O)N[C@H](C(=O)N[C@@H](Cc1ccc(C#Cc2cnc(N3CC4CCC(C3)N4C3COC3)nc2)cc1)[C@H](CN(Cc1c(F)cc(-c2ccn(C(F)F)n2)cc1F)NC(=O)[C@@H](NC(=O)OC)C(C)(C)C(F)(F)F)OC(=O)CC(C)(C)c1c(CC(=O)NC/C(N)=N/O)cc(C)cc1OP(=O)(O)O)C(C)(C)C(F)(F)F : 2478.7 nM

###

# Test system: HIV-1 IIIB strain
# experiment-notes: MT-4 HIV Wild Type Virus Infection Assay (IIIB Virus)
# Type: cell-based
# setup-conditions: Human immunodeficiency virus 1, IIIB, MT4, 120 h, MT-4 cells acutely infected with HIV-1 IIIB, 5 day incubation, Cell-titer glo
The reader will find reported EC50 values listed item by item below.
experimental-endpoint: EC50 (nM)

1. COC(=O)N[C@H](C(=O)N[C@@H](Cc1ccc(C#Cc2cnc(N3CC4CCC(C3)N4C3COC3)nc2)cc1)[C@H](CN(Cc1c(F)cc(-c2ccn(C(F)F)n2)cc1F)NC(=O)[C@@H](NC(=O)OC)C(C)(C)C(F)(F)F)OC(=O)CC(C)(C)c1c(CC(=O)NCCC(=O)O)cc(C)cc1OP(=O)(O)O)C(C)(C)C(F)(F)F [Example 26] : 96.9
2. COC(=O)N[C@H](C(=O)N[C@@H](Cc1ccc(C#Cc2cnc(N3CC4CCC(C3)N4C3COC3)nc2)cc1)[C@H](CN(Cc1c(F)cc(-c2ccn(C(F)F)n2)cc1F)NC(=O)[C@@H](NC(=O)OC)C(C)(C)C(F)(F)F)OC(=O)CC(C)(C)c1c(CC(=O)Nc2cccc(S(=O)(=O)O)c2)cc(C)cc1OP(=O)(O)O)C(C)(C)C(F)(F)F [Example 105] : 217
3. COC(=O)N[C@H](C(=O)N[C@@H](Cc1ccc(C#Cc2cnc(N3CC4CCC(C3)N4C3COC3)nc2)cc1)[C@H](CN(Cc1c(F)cc(-c2ccn(C(F)F)n2)cc1F)NC(=O)[C@@H](NC(=O)OC)C(C)(C)C(F)(F)F)OC(=O)OCOC(=O)CC(C)(C)c1c(CC(=O)N2CCCC2C(=O)O)cc(C)cc1OP(=O)(O)O)C(C)(C)C(F)(F)F (stereo partly drawn) [Example 78] : 3.1
